# protocol notes: NCI Yeast Anticancer Drug Screen. Data for the rad50 strain (AID 155)
# protocol conditions: S. cerevisiae rad50 strain growth inhibition; at 50.0 µM; active compounds read high
About 79,000 compounds went through this panel and 15% of them were active in at least one assay; those are over-represented in the sample as a whole.
Use growth inhibition to assign classes; range list: small value: < 50%; mid value: ≥ 50% and < 80%; large value: ≥ 80%

Lookup: Using the reported growth inhibition, which band applies to "N#C/C(=C1C=C/C(=N\O)C(Cl)=C\1)c1ccccc1" ?
Found: mid value

Lookup: Band for the recorded growth inhibition of "Cc1ccc(N(C=O)c2c([N+](=O)[O-])cc([N+](=O)[O-])c3c2=[N+]([O-])CN=3)cc1" ?
Found: mid value

Lookup: Which growth inhibition band matches "O=c1oc(C(C(F)(F)F)C(F)(F)F)nc2ccccc12" ?
Found: small value

Lookup: Band for the recorded growth inhibition of "CCSc1c2ccccc2c(-c2nc(F)nc(F)n2)n1CCc1ccccc1" ?
Found: large value

Lookup: Category lookup for the compound "O=C1C=CC(=Nc2ccc3c(c2)Cc2cc(Cl)ccc2-3)O1"
Found: large value

Lookup: Given "CCCCCCCCCC/C=C\CC(=O)O" , name the class its growth inhibition places it in.
Found: small value

Lookup: Class label required: "C=Cc1c(C)c(O)cc2c1-c1ccc(O)c(C)c1CC2"
Found: small value

Lookup: Hey, which category is CC(C)(C)[Si](C)(C)OCC1OC(n2cnc3c(N)ncnc32)C2OC(=S)OC12 (stereo not drawn) in, do you know?
Found: small value

Lookup: Exam item: assign "BrC/C=C/C[P+](c1ccccc1)(c1ccccc1)c1ccccc1" to the correct category.
Found: large value

Lookup: Class label required: c1ccc(N/N=C2\CC(c3ccccc3)Oc3ccccc32)cc1 (stereo not drawn)
Found: mid value

Lookup: Just checking, what class would you give "COc1ccc2cc(CN3CCC(C4CCN(Cc5ccc6cc(OC)ccc6c5)CC4)CC3)ccc2c1" here?
Found: large value

Lookup: Lab log: "C#CC1=CC(=O)C(OC)=CC1=O" — assign growth inhibition category
Found: small value

Lookup: Bin this entry: NCC(O)CSCc1ccc(Cl)cc1 (stereo not drawn)
Found: small value

Lookup: Band for "O=C1c2ccccc2C(=O)C1C(c1ccc(F)cc1)C1C(=O)c2ccccc2C1=O" ?
Found: mid value

Lookup: Assign a bin to "CC[C@@]1(OC(=O)CN(C)C)C(=O)OCc2c1cc1n(c2=O)Cc2cc3ccccc3nc2-1"
Found: large value

Lookup: Hello team, could you let me know which band the following compound falls into: "O=[N+]([O-])C(=C(NCc1ccccc1)NCc1ccccc1)C(Cl)=C(Cl)Cl"
Found: small value

Lookup: Band of COc1ccc(/C(=N/O)c2ccccc2C2=Nc3ccccc3C(NCc3ccccc3)O2)cc1C (stereo not drawn) ?
Found: large value

Lookup: Returns: class label. Input: "O=c1[nH]c(=O)n(CCCO)cc1F"
Found: small value

Lookup: # classify by growth inhibition band: "CN1CCN(c2ccc3nc(-c4ccc5nc(-c6ccc(O)cc6)[nH]c5c4)[nH]c3c2)CC1"
Found: large value

Lookup: Please indicate the class for "O=C1c2ccc(O)cc2C(=O)c2c(O)ccc(O)c21" based on its growth inhibition.
Found: mid value

Lookup: Hey, which category is "COc1ccc(C(=O)NCCN(C)C)c2nc3ccccc3cc12" in, do you know?
Found: large value

Lookup: Class? Entry: "O=C1C=CC(=O)N1c1ccc(Br)cc1Cl"
Found: large value

Lookup: Determine which band this compound sits in: "CN(C)N=Nc1ccc(NC=O)cc1"
Found: large value

Lookup: Category lookup for the compound "O=C(O)/C=C\C(=O)NNc1ccc(Br)cc1"
Found: large value

Lookup: Each compound maps to one class by growth inhibition. Which class for "CCOC(=O)C1=C(C)NC(C)=C(C(=O)OCC)C1c1cccc([N+](=O)[O-])c1" ?
Found: large value

Lookup: // return the class label for CCC1SC(=S)N(c2ccc(Cl)cc2)C1=O (stereo not drawn)
Found: small value

Lookup: Exercise: read the entry "COc1ccc(/C=C2\CCc3ccccc3C2=O)cc1OC" and state which class it falls under.
Found: large value

Lookup: Exam item: assign O=S(=O)(CCC[C@H]1[C@@H](CCOCc2ccccc2)C2CCCN1O2)c1ccccc1 (stereo partly drawn) to the correct category.
Found: small value

Lookup: Tag the class for "c1cncc(C(Nc2cccc3cccnc23)Nc2cccc3cccnc23)c1"
Found: mid value

Lookup: Which bin should I file "CN(C)CCNC(=O)c1cccc2nc3c4ccccc4c4ccccc4c3nc12" under?
Found: large value

Lookup: Class for "CCN(CC)CCSc1c2ccccc2nc2cc(NCC(=O)Nc3ccccc3-c3ccccc3NC(=O)CNc3ccc4c(SCCN(CC)CC)c5ccccc5nc4c3)ccc12" ?
Found: large value

Lookup: Class for "CCCCCC/C(C)=N/Nc1ccc([N+](=O)[O-])cc1[N+](=O)[O-]" ?
Found: small value

Lookup: Band of O=C(O)NCC1CCCCC1 (tested in a mixture with another compound) ?
Found: small value

Lookup: Sort into band: "[Cl][Pt+2][Cl].[NH-]CC1(C[NH-])CCCCC1"
Found: large value

Lookup: State the band of "O=[N+]([O-])c1cccc2nc3ccccc3c(NCCC[N+]3([O-])CCOCC3)c12"
Found: large value

Lookup: Which category fits this record: O=C1c2ccccc2C2CCC1c1ccccc12 (stereo not drawn)
Found: mid value

Lookup: Assign a bin to CC1=NN(C(=O)CC(=O)N(C(=O)c2ccccc2)c2ccc(Cl)cc2)C(=O)C1N=Nc1ccc([N+](=O)[O-])cc1 (stereo not drawn)
Found: large value

Lookup: Categorize the following entry: O=C(Nc1ccn(C2CC(O)C(COC(c3ccccc3)(c3ccccc3)c3ccccc3)O2)c(=O)n1)c1ccccc1 (stereo not drawn)
Found: small value

Lookup: Input CCCCCCCCCCCCCCCCOCC(Cl)COP(=O)(O)OP(=O)(O)OCC1OC(n2cnc3c(N)ncnc32)C(O)C1O (stereo not drawn) ; output its category
Found: mid value

Lookup: Lab note: sort "COc1ccc2c(C)cc(N/N=C/c3sccc3C)nc2c1" into the matching growth inhibition band.
Found: mid value
